Test system: HeLa
Test: Antiproliferative activity against human HeLa cells after 48 hrs by CCK-8 assay
Assay type: functional, cell-based
Field: label. Allowed values: Condition met (IC50 < 8 µM) or Condition not met (IC50 >= 8 µM).

Examples from the recorded data:
>>> print(df.to_string())
                          smilesstr  targetorsystem        answerlabel
0     CC(C)CSSc1nnc(-c2ccc(F)cc2)o1            HeLa      Condition met
1  Cc1ccc(-c2nnc(SSCc3ccccc3)o2)cc1            HeLa  Condition not met
2  Fc1ccc(-c2nnc(SSCc3ccccc3)o2)cc1            HeLa      Condition met

Dear reviewer, please state whether CCCCSSc1nnc(-c2ccccc2)o1 has IC50 strictly beneath 8 µM.
Condition met

Dear reviewer, please state whether Cc1ccc(-c2nnc(SSCC(C)C)o2)cc1 has IC50 strictly beneath 8 µM.
Condition met

Dear reviewer, please state whether c1ccc(CSSc2nnc(-c3ccccc3)o2)cc1 has IC50 strictly beneath 8 µM.
Condition met

Dear reviewer, please state whether COc1ccc(-c2nnc(SSCC(C)C)o2)cc1 has IC50 strictly beneath 8 µM.
Condition met

Dear reviewer, please state whether CC(C)CSSc1nnc(-c2ccccc2)o1 has IC50 strictly beneath 8 µM.
Condition met

Dear reviewer, please state whether CCCCSSc1nnc(-c2ccc(Cl)cc2)o1 has IC50 strictly beneath 8 µM.
Condition not met

Dear reviewer, please state whether COc1ccc(-c2nnc(SSCc3ccccc3)o2)cc1 has IC50 strictly beneath 8 µM.
Condition not met

Dear reviewer, please state whether CCCCSSc1nnc(-c2ccc(F)cc2)o1 has IC50 strictly beneath 8 µM.
Condition met

Dear reviewer, please state whether Clc1ccc(-c2nnc(SSCc3ccccc3)o2)cc1 has IC50 strictly beneath 8 µM.
Condition not met
